Origin of measurements: ChEMBL document CHEMBL3045779

# Tested on: Rattus norvegicus
# Procedure details: Anti-inflammatory activity inRattus norvegicus albino (rat) assessed as inhibition of carrageenan-induced paw edema at 100 mg/kg administered 1 hr prior to carrageenan-challenge measured after 2 hr by plethysmometric analysis relative to control
# Format: functional
Quantity kind: inhibition in vivo at 100 mg/kg (%)
Number in %, nothing else.

The recorded inhibition in vivo at 100 mg/kg for CCOC(=O)C1=C(N)Oc2c(c(=O)[nH]c3ccccc23)C1c1ccc(Cl)cc1 (configuration not stated) is 66.1

Reported inhibition in vivo at 100 mg/kg ( CCOC(=O)C1=C(N)Oc2c(c(=O)[nH]c3ccc(C)cc23)C1c1cccc([N+](=O)[O-])c1 (configuration not stated) ) = 70.3

Documented inhibition in vivo at 100 mg/kg of CCOC(=O)C1=C(N)Oc2c(c(=O)[nH]c3ccccc23)C1c1cccc([N+](=O)[O-])c1 (configuration not stated) : 69

The value of inhibition in vivo at 100 mg/kg measured for the compound CCOC(=O)C1=C(N)Oc2c(c(=O)[nH]c3ccccc23)C1c1ccc(O)cc1 (configuration not stated) turned out to be 63.4

// field: inhibition in vivo at 100 mg/kg; key: CCOC(=O)C1=C(N)Oc2c(c(=O)[nH]c3ccccc23)C1c1cccc(Cl)c1 (configuration not stated) ; value = 68.5

Notebook: CCOC(=O)C1=C(N)Oc2c(c(=O)[nH]c3ccc(C)cc23)C1c1ccccc1 (configuration not stated) , inhibition in vivo at 100 mg/kg read as 71.1

// recorded inhibition in vivo at 100 mg/kg for CCOC(=O)C1=C(N)Oc2c(c(=O)[nH]c3ccccc23)C1c1ccccc1Cl (configuration not stated) : 69.4

Record summary for CCOC(=O)C1=C(N)Oc2c(c(=O)[nH]c3ccc(C)cc23)C1c1ccc(O)cc1 (configuration not stated) : reported inhibition in vivo at 100 mg/kg = 70.4

Please fill in: inhibition in vivo at 100 mg/kg reported for CCOC(=O)C1=C(N)Oc2c(c(=O)[nH]c3ccc(C)cc23)C1c1cccc(Cl)c1 (configuration not stated) = 69.7

Recorded inhibition in vivo at 100 mg/kg (compound CCOC(=O)C1=C(N)Oc2c(c(O)nc3ccccc23)C1c1ccccc1 (configuration not stated) ): 61.9

Memo: CCOC(=O)C1=C(N)Oc2c(c(=O)[nH]c3ccc(C)cc23)C1c1ccc(Cl)cc1 (configuration not stated) , reported inhibition in vivo at 100 mg/kg: 70.3

Form: compound = CCOC(=O)C1=C(N)Oc2c(c(=O)[nH]c3ccc(C)cc23)C1c1ccccc1Cl (configuration not stated) ; inhibition in vivo at 100 mg/kg = 68.1
